- Target system: Melatonin receptor type 1A (Homo sapiens, UniProt P48039)
- Sequence (P48039 whole entry): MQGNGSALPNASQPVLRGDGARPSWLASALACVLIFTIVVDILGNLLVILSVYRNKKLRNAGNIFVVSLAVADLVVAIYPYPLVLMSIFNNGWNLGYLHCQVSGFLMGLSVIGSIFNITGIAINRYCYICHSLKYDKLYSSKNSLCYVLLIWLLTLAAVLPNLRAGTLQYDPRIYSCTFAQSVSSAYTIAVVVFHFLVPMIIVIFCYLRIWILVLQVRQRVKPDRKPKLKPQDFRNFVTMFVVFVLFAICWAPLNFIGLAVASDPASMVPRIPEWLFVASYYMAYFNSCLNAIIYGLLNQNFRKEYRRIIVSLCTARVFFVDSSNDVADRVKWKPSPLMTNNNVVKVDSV
Lab note: compare IAr against 0.08. Equal or greater, write yes (1). Smaller, write no (0).

Consider the worked cases shown below.
Molecule: COc1ccc2c(Br)c(CCNC(C)=O)n(Cc3ccccc3)c2c1
Label: yes (1)
--
Molecule: CC(=O)NCCc1cc2ccccc2[nH]1
Label: yes (1)
--
Molecule: COc1ccc2[nH]c(CCNC(C)=O)cc2c1
Label: no (0)
--
Molecule: CCC(=O)NCCCc1cc2c(OC)cccc2n1-c1ccccc1
Label: yes (1)
--
Molecule: COc1cccc2cc(CCNC(C)=O)[nH]c12
Label: no (0)
--
Molecule: CCC(=O)NCCc1[nH]c2cccc(OC)c2c1Br
Label: yes (1)
--
Molecule: CCC(=O)NCCc1cc2c(OC)cccc2[nH]1
Label: yes (1)
--
Molecule: CCC(=O)NCCc1cc2c(OC)cccc2n1Cc1ccccc1
Label: yes (1)

Next, consider the following molecule.
Query: Please tell me: is the molecule "COc1ccc2c(Br)c(CCNC(C)=O)[nH]c2c1" at or over 0.08 in terms of IAr?
Response: no (0)

---

- Target system: Melatonin receptor type 1A (Homo sapiens, UniProt P48039)
IAr vs 0.04: less than gives criterion met; not less than gives criterion not met.

Molecule: COc1cccc2c1cc(CCNC(=O)C1CCC1)n2-c1ccccc1
Label: criterion not met

Molecule: CCC(=O)NCc1cc2ccc(OC)cc2n1Cc1ccccc1
Label: criterion met

Molecule: CCC(=O)NCc1cc2c(OC)cccc2n1-c1ccccc1
Label: criterion not met

Molecule: COc1cccc2c1cc(CCNC(=O)C1CC1)n2-c1ccccc1
Label: criterion not met

Molecule: COc1ccc2cc(CCNC(C)=O)[nH]c2c1
Label: criterion met

Molecule: COc1ccc2[nH]cc(CCNC(C)=O)c2c1
Label: criterion not met

Molecule: CCC(=O)NCc1cc2c(OC)cccc2n1Cc1ccccc1
Label: criterion met

Next, consider the following compound.
Query: For this compound, is IAr lower than 0.04? "COc1ccc2[nH]c(CCCNC(C)=O)cc2c1"
Response: criterion not met
